Task for the reader: assign each of the following variants its reported protein stability index.
B1: LOXL2 (parent)
chain: FSPDGPSRFRKAYKPEQPLVRLRG

Variants of: B1
TEST_SUMMARY: protein stability index of a GFP-peptide fusion (GPS, HEK-293T) (PSI 1-6); higher = more stable;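 also: lentivirally expressed fusions sorted by FACS into six bins by GFP to DsRed ratio, PSI derived from sequencing read proportions per bin multiplied by bin number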
APPLIED_CONDITIONS: c terminus: a fixed tail appended

// for each variant in input: emit protein stability index
1. P3V
2. K11P
3. L22P
4. P6Y
5. L22G
6. D4N
7. F9A
8. R8G

Found:
1. 2.6
2. 2.41
3. 2.05
4. 2.16
5. 1.9
6. 1.73
7. 2.52
8. 2.02

// for each variant in input: emit protein stability index
1. R8L
2. E16P
3. V20H
4. Y13I
5. Y13C
6. K14M

Found:
1.5
1.72
1.63
1.54
3.06
2.19

// for each variant in input: emit protein stability index
1. G24C
2. P6I
3. D4P
4. S7Y
5. A12I

Found:
2.27
2.52
1.07
2.62
3.12
